Study Conditions: in isopropanol, 283.15 K
Observed Property: solubility (mole fraction)
Answer with a bare number; do not write a unit.

Query :: // returns reported solubility (mole fraction) for input `c1ccc2[nH]cnc2c1`
Result :: 0.0636

----------
Study Conditions: in n-pentanol, 318.15 K
Observed Property: solubility (mole fraction)
Hey, just send me the number, nothing else.

Query :: What does the record list as solubility (mole fraction) for `c1ccc2[nH]cnc2c1` ?
Result :: 0.155

----------
Study Conditions: in ethyl acetate, 288.15 K
Observed Property: solubility (mole fraction)
Keep the answer to the number alone.

Query :: Consider the molecule shown here: `c1ccc2[nH]cnc2c1` What is its recorded solubility (mole fraction)?
Result :: 0.0094
